# target_under_test: T1, recombinant human BCMA, commercial (US Biological, B0410) (human, UniProt Q02223 5-54, limits assumed)
# T1 construct: also called commercial human BCMA; Human commercial BCMA
# T1 chain (looked up): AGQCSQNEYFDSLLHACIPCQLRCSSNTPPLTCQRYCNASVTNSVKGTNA
# protocol_notes: ProteOn SPR run 2, antibody captured on Protein A, 25C
endpoint: Kd (pM)
// return numeric value only (unit: pM, not printed)

Below: 2 binders and their reported Kd.
[[record]]
binder = "CA8 humanised J6M0 (antibody, human IgG1, kappa, V domains shown, Humanised CA8, heavy chain J6 with light chain M0, human IgG1 kappa; also called CA8 J6M0; humanised J6M0 (wild type)) VH: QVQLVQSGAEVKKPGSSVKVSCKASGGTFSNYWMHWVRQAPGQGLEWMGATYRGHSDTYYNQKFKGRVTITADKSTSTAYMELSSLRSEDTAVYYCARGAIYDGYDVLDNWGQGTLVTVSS VL: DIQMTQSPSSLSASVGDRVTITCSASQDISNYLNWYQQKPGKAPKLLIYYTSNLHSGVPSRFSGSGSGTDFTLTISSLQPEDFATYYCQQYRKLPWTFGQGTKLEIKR"
endpoint = "Kd"
uom = "pM"
assay_value = 86

[[record]]
binder = "S307118G03 Chimera (antibody, human IgG1, kappa, V domains shown, also called chimeric S307118G03) VH: EVQLQQSGPELVKPGASVKISCKASGYTFTDYYMKWVKQSHGKSLEWIGEIYPNNGGITYNQKFKGKATLTVDKSSSTAYMELRSLTSEDSAVYYCANGYEFVYWGQGTLVTVSA VL: DIQMTQTASSLSASLGDRVTISCSASQGISNYLNWYQQKPDGTVKLLIYYTSSLHSGVPSRFSGSGSGTDYSLTISNLEPEDIATYYCQQYSKLPWTFGGGTKLELKR"
endpoint = "Kd"
uom = "pM"
assay_value = 956


Here is another binder to look at.
For record CA8 chimera antibody (human chimeric CA8) (antibody, V domains shown, also called Chimera CA8; CA8 chimeric antibody) VH: EVQLQQSGAVLARPGASVKMSCKGSGYTFTNYWMHWVKQRPGQGLEWIGATYRGHSDTYYNQKFKGKAKLTAVTSTSTAYMELSSLTNEDSAVYYCTRGAIYNGYDVLDNWGQGTLVTVSS VL: DIQLTQTTSSLSASLGDRVTISCSASQDISNYLNWYQQKPDGTVELVIYYTSNLHSGVPSRFSGSGSGTDYSLTIGYLEPEDVATYYCQQYRKLPWTFGGGSKLEIKR the listed Kd is 139

Data credit: patent US20230137032A1
